# Tested on: asymmetric di-methyl PABP1 in RKO cells
# Assay Procedure: In Cell Western (ICW) for asymmetric di-methyl PABP1 and DNA content in RKO cells
# Type: cell-based
# Condition Description: Homo sapiens, RKO, In Cell Western
Readings of pIC50 for the listed molecules
Formally, pIC50 is defined as -log10 of the concentration c, with c in mol/L.

Below: 3 molecules and their reported pIC50.
| Smiles Structure | pIC50 |
| --- | --- |
| CC(C)n1ncc2c(NCC(=O)O)cc(-c3cccc(CN(C)CCN)c3)nc21 | 4.70 |
| CNCCN(C)Cc1cccc(-c2cc(C(=O)NCc3ccc(F)cc3)c3cnn(C(C)C)c3n2)c1 | 4.70 |
| CNCCN(C)Cc1cccc(-c2cc(C(=O)NCC3CCOCC3)c3cnn(C4CCC4)c3n2)c1 | 5.13 |

Attention now shifts to the item below.
Look up and state reported pIC50 for `CCNCCN(C)Cc1cccc(-c2cc(C(=O)NCC3CCOCC3)c3cnn(C(C)C)c3n2)c1`
4.70

* * *

# Test system: asymmetric di-methyl PABP1 in RKO cells
# Assay Procedure: In Cell Western (ICW) for asymmetric di-methyl PABP1 and DNA content in RKO cells
# Assay type: cell-based
# Condition Description: Homo sapiens, RKO, In Cell Western
# Method: RKO adherent cells were purchased from ATCC (American Type Culture Collection), Manassas, Va., USA. […] Calculations: First, the ratio for each well was determined by: Each plate included fourteen control wells of DMSO only treatment (minimum inhibition) as well as fourteen control wells for maximum inhibition treated with 20 μM of a reference compound. The average of the ratio values for each control type was calculated and used to determine the percent activation for each test well in the plate. […]
With a cut-off of 6 µM, any IC50 strictly below it is called Fulfilled; any IC50 meeting it or above is called Not fulfilled.

Look over these answered cases.
| Molecule | Class Name |
| --- | --- |
| CC(C)n1ncc2c(C(=O)NCC3CCOCC3)cc(-c3cccc(CN(C)CCNC4CC4)c3)nc21 [Compound 167] | Fulfilled |
| CNCCN(C)Cc1cccc(-c2cc(C(=O)NCc3ccccn3)c3cnn(C(C)C)c3n2)c1 [Compound 98] | Fulfilled |
| CNCCN(C)Cc1cccc(-c2nc(NCc3ccccn3)c3cnn(C4CC4)c3n2)c1 [Compound 9] | Not fulfilled |
| CC(C)n1ncc2c(C(=O)N3CCC3)cc(-c3cccc(CN(C)CCN)c3)nc21 [Compound 201] | Fulfilled |
| CC(C)NC(=O)Nc1cc(-c2cccc(CN(C)CCN)c2)nc2c1cnn2C(C)C [Compound 86] | Fulfilled |

Is it true that IC50 reported for CNCCN(C)Cc1cccc(-c2cc(NC(=O)OC)c3cnn(C(C)C)c3n2)c1 [Compound 190] is less than 6 µM?
Fulfilled

Is it true that IC50 reported for CNCCN(C)Cc1cccc(-c2nc(N3CCOCC3)c3cnn(C(C)C)c3n2)c1 [Compound 99] is less than 6 µM?
Fulfilled

Is it true that IC50 reported for Cc1c(N(C)CC2CC2)cc(-c2cccc(CN(C)CCN)c2)cc1N1CCOCC1 [Compound 241] is less than 6 µM?
Fulfilled

Is it true that IC50 reported for CNCCN(C)Cc1cccc(-c2cc(C(F)(F)F)c3cnn(C(C)C)c3n2)c1 [Compound 293] is less than 6 µM?
Not fulfilled

Is it true that IC50 reported for CNCCN(C)Cc1cccc(-c2cc(C(=O)N3CCN(C)C(=O)C3)c3cnn(C(C)C)c3n2)c1 [Compound 296] is less than 6 µM?
Not fulfilled

Is it true that IC50 reported for COC1CCN(C(=O)c2cc(-c3cccc(CN(C)CCN)c3)nc3c2cnn3C(C)C)C1 (centres unmarked) [Compound 274] is less than 6 µM?
Not fulfilled

Is it true that IC50 reported for CNCCN(C)Cc1cccc(-c2cc(C(=O)NCc3ccncc3)c3cnn(C(C)C)c3n2)c1 [Compound 182] is less than 6 µM?
Fulfilled

Is it true that IC50 reported for CNCCN(C)Cc1cccc(-c2cc(C(O)c3ccncc3)c3cnn(C(C)C)c3n2)c1 (centres unmarked) [Compound 307] is less than 6 µM?
Not fulfilled

Is it true that IC50 reported for CNCCN(C)Cc1cccc(-c2cc(C(=O)NCc3cc(C)nn3C)c3cnn(C(C)C)c3n2)c1 [Compound 120] is less than 6 µM?
Fulfilled

Is it true that IC50 reported for CN(CCN)Cc1cccc(-c2nc(NCc3ccncc3)c3cnn(C4CC4)c3n2)c1 [Compound 66] is less than 6 µM?
Not fulfilled

Is it true that IC50 reported for CC(C)n1ncc2c(N3CCOCC3)cc(-c3cccc(CN(C)CCN)c3)nc21 [Compound 61] is less than 6 µM?
Fulfilled

* * *

# Study Target: human PRMT1 (Homo sapiens, UniProt Q99873)
# Sequence (Q99873 with tags, fused parts or gaps): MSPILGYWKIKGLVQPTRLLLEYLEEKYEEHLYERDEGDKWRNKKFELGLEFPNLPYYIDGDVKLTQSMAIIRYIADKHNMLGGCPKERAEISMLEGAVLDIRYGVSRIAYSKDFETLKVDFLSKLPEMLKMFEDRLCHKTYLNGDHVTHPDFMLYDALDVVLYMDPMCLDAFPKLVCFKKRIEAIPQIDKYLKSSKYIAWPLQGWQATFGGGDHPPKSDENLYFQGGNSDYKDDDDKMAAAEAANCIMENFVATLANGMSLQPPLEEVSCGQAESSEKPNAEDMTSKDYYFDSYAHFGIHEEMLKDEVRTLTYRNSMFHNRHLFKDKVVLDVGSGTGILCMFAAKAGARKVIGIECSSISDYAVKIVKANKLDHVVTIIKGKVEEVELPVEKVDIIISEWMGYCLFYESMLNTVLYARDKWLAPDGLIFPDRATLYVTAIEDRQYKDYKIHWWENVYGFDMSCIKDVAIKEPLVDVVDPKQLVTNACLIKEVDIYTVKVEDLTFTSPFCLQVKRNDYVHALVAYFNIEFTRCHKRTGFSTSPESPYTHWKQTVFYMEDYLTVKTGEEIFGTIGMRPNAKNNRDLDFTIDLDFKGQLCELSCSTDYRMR
Readings of IC50 for the listed compounds
Return type: number; implicit unit nM.

| Smiles Structure | Assay Result |
| --- | --- |
| NCCNCc1ccc(-c2ccc3nc(-c4ccc5cccnc5c4)[nH]c3c2)cc1 | 317 |

For human PRMT1 (Homo sapiens, UniProt Q99873), give the measured IC50 of the entry `CNCCN(C)Cc1ccc(-c2cc(C(=O)NCc3c(C)cc(C)[nH]c3=O)c(C)c3n[nH]cc23)cc1`
104

For human PRMT1 (Homo sapiens, UniProt Q99873), give the measured IC50 of the entry `CNCCN(C)Cc1cccc(-c2cc(C(=O)N3CCCCC3)c3cnn(C(C)C)c3n2)c1`
238

For human PRMT1 (Homo sapiens, UniProt Q99873), give the measured IC50 of the entry `CNCCN(C)Cc1cccc(-c2cc(NC)c3cnn(C(C)C)c3n2)c1`
721

* * *

# Study Target: UniProt Q86X55
# Sequence (Q86X55 2-585 isoform Q86X55-1): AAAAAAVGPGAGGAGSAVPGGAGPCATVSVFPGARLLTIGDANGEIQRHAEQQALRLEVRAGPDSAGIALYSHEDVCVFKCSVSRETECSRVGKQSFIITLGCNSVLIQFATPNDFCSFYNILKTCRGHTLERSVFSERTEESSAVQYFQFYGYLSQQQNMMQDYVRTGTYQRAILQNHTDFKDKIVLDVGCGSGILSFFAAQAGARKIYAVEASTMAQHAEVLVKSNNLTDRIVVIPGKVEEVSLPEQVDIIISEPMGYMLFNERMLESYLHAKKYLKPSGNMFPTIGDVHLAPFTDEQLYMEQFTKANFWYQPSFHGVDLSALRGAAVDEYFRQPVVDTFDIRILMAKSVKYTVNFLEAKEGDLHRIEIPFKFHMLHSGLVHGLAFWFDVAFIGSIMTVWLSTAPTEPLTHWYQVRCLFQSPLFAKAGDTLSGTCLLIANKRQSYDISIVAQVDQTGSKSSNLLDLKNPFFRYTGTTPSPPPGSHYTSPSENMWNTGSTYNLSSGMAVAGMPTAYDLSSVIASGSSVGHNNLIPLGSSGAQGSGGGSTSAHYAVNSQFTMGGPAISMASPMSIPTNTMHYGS
Readings of pIC50 for the listed molecules
Formally, pIC50 is defined as -log10 of the concentration c, with c in mol/L.

Below: 5 molecules and their reported pIC50.
| Molecule | Reported Metric | Assay Result |
| --- | --- | --- |
| NCCNCc1ccc(-c2ccc3ncn(Cc4cccc(C(=O)NC5CCCCC5)c4)c3c2)cc1 [Compound 327] | pIC50 | 5.80 |
| CC(C)n1cc2c(N)cc(-c3cccc(CN(C)CCN)c3)nc2n1 [Compound 13] | pIC50 | 5.77 |
| Cc1cc(C)c(CNC(=O)c2cc(-c3cccc(CN(C)CCN(C)C)c3)nc3c2cnn3C(C)C)c(=O)[nH]1 [Compound 361] | pIC50 | 6.60 |
| CNCCN(C)Cc1cccc(-c2ccc3ncn(C4CCOCC4)c3c2)c1 [Compound 30] | pIC50 | 6.07 |
| CC(C)n1ncc2c(C(=O)N3CCSCC3)cc(-c3cccc(CN(C)CCN)c3)nc21 [Compound 258] | pIC50 | 7.19 |

Look up and state reported pIC50 for CC(C)n1ncc2c(C(=O)N[C@@H](C)c3ccccc3)cc(-c3cccc(CNCCN)c3)nc21 [Compound 160]
7.55

Look up and state reported pIC50 for CC(C)n1ncc2c(C(=O)NC3CCOCC3)cc(-c3cccc(CN(C)CCN)c3)nc21 [Compound 148]
7.96

Look up and state reported pIC50 for CCOC(=O)c1cc(-c2cccc(CN(C)CCNC)c2)nc2c1cnn2CC(F)(F)F [Compound 316]
6.42

* * *

# Study Target: Human CARM1 (PRMT4) (Homo sapiens)
# Sequence (Q86X55 2-585 isoform Q86X55-1): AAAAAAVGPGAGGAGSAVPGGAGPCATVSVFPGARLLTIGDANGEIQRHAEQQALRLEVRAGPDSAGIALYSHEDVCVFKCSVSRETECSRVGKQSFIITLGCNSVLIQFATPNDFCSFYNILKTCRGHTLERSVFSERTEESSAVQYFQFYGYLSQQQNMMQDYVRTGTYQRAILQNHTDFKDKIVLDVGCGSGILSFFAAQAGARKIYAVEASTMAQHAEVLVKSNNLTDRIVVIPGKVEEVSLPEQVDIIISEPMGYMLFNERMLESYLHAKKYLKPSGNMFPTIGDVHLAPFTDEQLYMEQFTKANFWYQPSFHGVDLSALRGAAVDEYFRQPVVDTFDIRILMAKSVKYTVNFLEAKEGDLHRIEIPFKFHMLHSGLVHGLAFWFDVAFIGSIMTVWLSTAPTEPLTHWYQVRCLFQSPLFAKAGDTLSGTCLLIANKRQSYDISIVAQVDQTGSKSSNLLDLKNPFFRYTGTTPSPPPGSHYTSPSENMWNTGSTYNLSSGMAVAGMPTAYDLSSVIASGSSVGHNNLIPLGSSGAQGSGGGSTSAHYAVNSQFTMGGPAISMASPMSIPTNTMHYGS
Reported Metric: pIC50
Formally, pIC50 is defined as -log10 of the concentration c, with c in mol/L.

Look up and state reported pIC50 for CNCCN(C)Cc1cccc(-c2cc(N(CC3CC3)CC3CC3)c3cnn(C(C)C)c3n2)c1 [Compound 218]
7.51

Look up and state reported pIC50 for CNCCN(C)Cc1cccc(-c2cc(NC3CCOCC3)c3cnn(C(C)C)c3n2)c1 [Compound 76]
7.88

Look up and state reported pIC50 for CNCCN(C)Cc1cccc(-c2cc(C(=O)NCC3CCOCC3)c3cnn(CC(F)(F)F)c3n2)c1 [Compound 277]
6.98

Look up and state reported pIC50 for CNCCN(C)Cc1cccc(-c2cc(N(C)C)c3cnn(C(C)C)c3n2)c1 [Compound 103]
7.24

Look up and state reported pIC50 for CNCCN(C)Cc1cccc(-c2cc(-c3c(C)n[nH]c3C)c3cnn(C(C)C)c3n2)c1 [Compound 200]
7.78

Look up and state reported pIC50 for CNCCN(C)Cc1cccc(-c2cc(N(C)C3CC3)c3cnn(C(C)C)c3n2)c1 [Compound 95]
7.44

Look up and state reported pIC50 for CNCCN(C)Cc1cccc(-c2cc(C(=O)N[C@@H](C)c3ccccc3)c3cnn(Cc4ccccc4F)c3n2)c1 [Compound 283]
6.88

Look up and state reported pIC50 for CCN(C)C(=O)c1cc(-c2cccc(CN(C)CCN)c2)nc2c1cnn2C(C)C [Compound 230]
7.38
